# Tested on: Fibroblast
# experiment_description: Multiplex assay against human fibroblast
# Type: toxicity, cell-based
# measurement_conditions: 48 h, 1 µM, compound concentration 1 uM, replicate 1
value_kind: Population Pyknosed Nuclei (%)
Record the value in %, omitting the unit from your answer.

Take a look at these entries with their results.
CC(C)NC(=O)N1CC[C@H](NC2=Nc3cc(F)ccc3N(CC(F)F)c3ccc(Cl)cc32)C1 = 23
CC(C)Oc1ccccc1C(=O)Nc1ccccc1C(=O)Nc1cccc(S(=O)(=O)C(F)(F)F)c1 = 12
Cl.O=C(O)c1cc(-c2ccc(C3CCNCC3)cc2)c2ccc(-c3ccc(C(F)(F)F)cc3)cc2c1 = 29
COc1ccc(-c2ccc3ncc4c(c3c2)n(-c2ccc(N3CCNCC3)c(C(F)(F)F)c2)c(=O)n4C)cn1.O=C(O)/C=C\C(=O)O = 19
C[C@]12CC[C@@H]3c4ccc(O)cc4CC[C@H]3[C@@H]1CC[C@@H]2O = 5
CN1CCN(Cc2ccc(Nc3ncc(Cl)c(Nc4ccccc4S(=O)(=O)N(C)C)n3)cc2)CC1 = 13

What value of measured Population Pyknosed Nuclei (%) is listed for CC1=C(C(=O)Nc2cc3cn[nH]c3cc2F)C(c2ccc(C(F)(F)F)cc2)CC(=O)N1 (stereo not drawn) ?
18

Which Population Pyknosed Nuclei (%) is listed for "CNC(=O)Nc1ccc(-c2nc(N3CC4CCC(C3)O4)c3cnn(C4CCC5(CC4)OCCO5)c3n2)cc1" ?
19

----------
# System: Fibroblast
# experiment_description: Multiplex assay against human fibroblast
# Format: toxicity, cell-based
# measurement_conditions: 24 h, 1 µM, compound concentration 1 uM, replicate 2
Binary call on Total Cell Count: met from 80 upward, not met beneath that.

Previously resolved entries follow.
COc1ccc(-c2ccc3ncc4c(c3c2)n(-c2ccc(N3CCNCC3)c(C(F)(F)F)c2)c(=O)n4C)cn1.O=C(O)/C=C\C(=O)O = not met
Cc1ccc2c(c1)c1c(n2CCc2ccc(C)nc2)CCN(C)C1 [LATREPIRDINE] = not met
COc1ccccc1CN[C@H]1C2CCN(CC2)[C@H]1C(c1ccccc1)c1ccccc1 = met
CNC(=O)Nc1ccc(-c2nc(N3CC4CCC(C3)O4)c3cnn(C4CCC5(CC4)OCCO5)c3n2)cc1 = not met
COC(=O)C1=C(C)NC(C)=C(C(=O)OCCCN2CCC(c3ccccc3)(c3ccccc3)CC2)[C@H]1c1cccc([N+](=O)[O-])c1 = met

Below: the item to evaluate.
Kindly determine if Total Cell Count recorded for "Cc1c[nH]c2nccc(Oc3c(F)cc(Nc4cc(Cl)nc(N)n4)cc3F)c12" is above or exactly 80.
not met

----------
Attribute: Population Apoptotic (%)
# System: HEK-293T
# experiment_description: Multiplex assay against HEK293T
# Type: toxicity, cell-based
# measurement_conditions: human, 48 h, 1 µM, compound concentration 1 uM, replicate 1
Kindly answer with a numeric value in %, unit omitted.

Here are 3 molecules together with their reported answers.
Cc1cccc(CN2CCN(C(c3ccccc3)c3ccc(Cl)cc3)CC2)c1.Cl.Cl (configuration not stated) = 49
Cc1c[nH]c2nccc(Oc3c(F)cc(Nc4cc(Cl)nc(N)n4)cc3F)c12 = 48
CCc1ccc(OCc2ccccc2C(=O)Nc2ccc3nc(C)cc(N)c3c2)cc1.Cl = 85

Which measured Population Apoptotic (%) value corresponds to "COc1ccc(-c2ccc3ncc4c(c3c2)n(-c2ccc(N3CCNCC3)c(C(F)(F)F)c2)c(=O)n4C)cn1.O=C(O)/C=C\C(=O)O" ?
74

Given the molecule "CCCSc1nc(N[C@@H]2C[C@H]2c2ccc(F)c(F)c2)c2nnn([C@@H]3C[C@H](OCCO)[C@@H](O)[C@H]3O)c2n1" , what is its reported Population Apoptotic (%)?
55

Fill blank: measured Population Apoptotic (%) of the molecule "Cl.O=C(O)c1cc(-c2ccc(C3CCNCC3)cc2)c2ccc(-c3ccc(C(F)(F)F)cc3)cc2c1" is ____.
38

Which Population Apoptotic (%) is listed for "COC(=O)C1=C(C)NC(C)=C(C(=O)OCCCN2CCC(c3ccccc3)(c3ccccc3)CC2)[C@H]1c1cccc([N+](=O)[O-])c1" ?
85
